# Test: qHTS of small molecules that selectively kill Giardia lamblia: Hit Validation. Further: potency means the concentration at half of the fitted maximal effect.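 Further: viability measured as ATP content by luminescence so killing lowers signal; trophozoites exposed to compounds for 48 h anaerobically at 37 °C; nearly all actives have a fitted effect of over 65% in size.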
# Applied conditions: Giardia lamblia trophozoite viability, dose-response; series mostly up to 38.3 µM
Hit rate of the full screen: of about 1,300 compounds, about 1,000 (77%) were called active. Roughly 7% stayed inconclusive and do not appear here. So high a share suggests a set chosen from earlier hits. Some of the results follow.
Attribute measured: Potency

Illustrative cases are given below, each with its answer.
>>> obs_value("Cc1c(Cl)cccc1NC(=O)CCCn1cnc([N+](=O)[O-])n1")
"4.1 µM (active)"
>>> obs_value("COc1ccc(-c2nc3c(=O)n(C)c(=O)nc-3n(C)n2)cc1")
"0.163 µM (active)"
>>> obs_value("O=[N+]([O-])c1ccccc1S(=O)(=O)Oc1ccc(/C=N/n2cnnc2)cc1")
"0.516 µM (active)"
>>> obs_value("CCOC(=O)N1C(C)CN(/[N+]([O-])=N/Oc2ccc([N+](=O)[O-])cc2[N+](=O)[O-])CC1C (configuration not stated)")
"5.79 µM (active)"
>>> obs_value("Cc1cc(C(=O)COc2cccnc2[N+](=O)[O-])c(C)n1-c1ccccc1F")
"1.16 µM (active)"
>>> obs_value("CSCCC(NC(=O)c1ccco1)C(=O)OCc1cc([N+](=O)[O-])cc2c1OCOC2 (configuration not stated)")
"4.6 µM (active)"
>>> obs_value("N#CC1C=Cc2c(ccc3ccccc23)N1C(=O)c1ccccc1 (configuration not stated)")
"1.63 µM (active)"
>>> obs_value("Cc1ccnc(NC(=O)c2ccc([N+](=O)[O-])s2)c1")
"3.65 µM (active)"

## Task For the molecule shown here, `CC(=O)OCc1c(COC(C)=O)[n+](=O)c2ccccc2n1[O-]` , give the reported Potency.
## Result 5.79 µM (active)

## Task Record: CC1S/C(=C(\C#N)C(N)=O)N(c2ccc(F)cc2)C1=O (configuration not stated)
## Result inactive

## Task Lookup `O=[N+]([O-])c1ccccc1S(=O)(=O)Oc1ccccc1/C=N/n1cnnc1`
## Result 2.05 µM (active)

## Task Try this molecule too: `CCOC(=O)c1nnn(-c2ccc([N+](=O)[O-])cc2[N+](=O)[O-])c1C`
## Result 8.18 µM (active)

## Task Now this one: `O=C(N=Nc1c(O)[nH]c2ccccc12)c1cccs1`
## Result 3.65 µM (active)

## Task Now consider `Cc1ccc(OCC(=O)c2cc(C)n(Cc3ccco3)c2C)c([N+](=O)[O-])n1` and answer again.
## Result 1.16 µM (active)

## Task Then `CC1(C)[N+]([O-])=C2C(=[N+]([O-])C1(C)C)c1ccccc1/C2=N\O` ?
## Result 1.63 µM (active)

## Task Continue with `Cc1nn(-c2nc3ccccc3[nH]2)c(=O)c2ccccc12`
## Result 0.23 µM (active)

## Task Input `Cc1ccc(-n2c(C)cc(C(=O)COc3cccnc3[N+](=O)[O-])c2C)cc1`
## Result 0.516 µM (active)

## Task Please give the result for `Cc1cc(C(=O)COc2cccnc2[N+](=O)[O-])c(C)n1Cc1ccco1` too.
## Result 0.65 µM (active)

## Task Next molecule: `COCCCn1[nH]c2c3c(ccc2c1=O)C(=O)c1ccccc1C3=O`
## Result 1.03 µM (active)

## Task What do you get for `COc1ccc(CC(=O)Nc2ncc([N+](=O)[O-])s2)cc1OC` ?
## Result 0.259 µM (active)

## Task Entry to check: `CCn1cnc2c([N+](=O)[O-])c(NS(=O)(=O)c3ccc(C)cc3)ccc21`
## Result 0.206 µM (active)
